Data origin: PubChem BioAssay AID2060489

Test system: 922993-354-T-J3-PDC complex spheroids, viability;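 note: spheroids exposed to compounds for seven days; 100% = DMSO vehicle control viability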
TEST SUMMARY: Anticancer human tumor 922993-354-T-J3-PDC patient-derived endometrial carcinoma cell line growth inhibition [GQUAD]
PARTICULARS: second compound 0.316 µM; first compound 0.1 µM; hits give low values
Source text: DNA G-quadruplex Stabilizer Agents in Combinations in Complex Spheroids A high-throughput screen of multi-cell type tumor spheroids was designed to identify active combinations of DNA G-quadruplex stabilizer agents and targeted small molecules. […] Compounds. […] If the clinical Cmax for an agent had not been determined, the highest concentration tested was 10 microM. […]
MEASURED ATTRIBUTE: viability, T/C

Query: Item COc1cc(C2c3cc4c(cc3C(OC3OC5COC(C)OC5C(O)C3O)C3COC(=O)C23)OCO4)cc(OC)c1O (stereo not given) + Cc1[nH]c2ccc(F)cc2c1-c1nc2c3cccnc3c3ncccc3c2[nH]1 has what recorded viability, T/C?
Result: 109%

Query: Item C=CC(=O)N1CCN(c2nc(=O)n(-c3c(C)ccnc3C(C)C)c3nc(-c4c(O)cccc4F)c(F)cc23)C(C)C1 (stereo not given) + Cc1cnc(CNC(=O)c2c(=O)c3ccc(N4CCCN(C)CC4)nc3n3c2sc2ccccc23)cn1 has what recorded viability, T/C?
Result: 57.5%

Query: Item C=CCn1c(=O)c2cnc(Nc3ccc(N4CCN(C)CC4)cc3)nc2n1-c1cccc(C(C)(C)O)n1 + Cc1[nH]c2ccc(F)cc2c1-c1nc2c3cccnc3c3ncccc3c2[nH]1 has what recorded viability, T/C?
Result: 122%

Query: Item CC(=O)O[C@H]1C(=O)[C@@]2(C)[C@H]([C@H](OC(=O)c3ccccc3)[C@]3(O)C[C@H](OC(=O)[C@H](O)[C@@H](NC(=O)c4ccccc4)c4ccccc4)C(C)=C1C3(C)C)[C@]1(OC(C)=O)CO[C@@H]1C[C@@H]2O + Cc1[nH]c2ccc(F)cc2c1-c1nc2c3cccnc3c3ncccc3c2[nH]1 has what recorded viability, T/C?
Result: 90.4%

Query: Item CC(C)(O)C1CCC(Nc2ccc3ncc(-c4cccc(C(F)(F)F)c4)n3n2)CC1 (stereo not given) + Cc1[nH]c2ccc(F)cc2c1-c1nc2c3cccnc3c3ncccc3c2[nH]1 has what recorded viability, T/C?
Result: 87.4%

Query: Item Nc1ccn(C2OC(CO)C(O)C2(F)F)c(=O)n1 (stereo not given) + CN(C)c1ccc(Nc2c3ccc(NC(=O)CCN4CCCC4)cc3nc3cc(NC(=O)CCN4CCCC4)ccc23)cc1 has what recorded viability, T/C?
Result: 9.77%

Query: Item CC(C)(O)C1CCC(Nc2ccc3ncc(-c4cccc(C(F)(F)F)c4)n3n2)CC1 (stereo not given) + CN(C)c1ccc(Nc2c3ccc(NC(=O)CCN4CCCC4)cc3nc3cc(NC(=O)CCN4CCCC4)ccc23)cc1 has what recorded viability, T/C?
Result: 83%

Query: Item C=CC(=O)N1CCN(c2nc(=O)n(-c3c(C)ccnc3C(C)C)c3nc(-c4c(O)cccc4F)c(F)cc23)C(C)C1 (stereo not given) + Cc1[nH]c2ccc(F)cc2c1-c1nc2c3cccnc3c3ncccc3c2[nH]1 has what recorded viability, T/C?
Result: 95%

Query: Item CC1COCCN1c1cc(C2(S(C)(=N)=O)CC2)nc(-c2ccnc3[nH]ccc23)n1 (stereo not given) + CN(C)c1ccc(Nc2c3ccc(NC(=O)CCN4CCCC4)cc3nc3cc(NC(=O)CCN4CCCC4)ccc23)cc1 has what recorded viability, T/C?
Result: 102%

Query: Item C#Cc1c(F)ccc2cc(O)cc(-c3ncc4c(N5CC6CCC(C5)N6)nc(OCC56CCCN5CC(F)C6)nc4c3F)c12 (stereo not given) + Cc1[nH]c2ccc(F)cc2c1-c1nc2c3cccnc3c3ncccc3c2[nH]1 has what recorded viability, T/C?
Result: 88.8%
